# IC50 per entry
Measured Target: APE1 (Homo sapiens, UniProt P27695)
Construct: made in house
Sequence (P27695 whole entry): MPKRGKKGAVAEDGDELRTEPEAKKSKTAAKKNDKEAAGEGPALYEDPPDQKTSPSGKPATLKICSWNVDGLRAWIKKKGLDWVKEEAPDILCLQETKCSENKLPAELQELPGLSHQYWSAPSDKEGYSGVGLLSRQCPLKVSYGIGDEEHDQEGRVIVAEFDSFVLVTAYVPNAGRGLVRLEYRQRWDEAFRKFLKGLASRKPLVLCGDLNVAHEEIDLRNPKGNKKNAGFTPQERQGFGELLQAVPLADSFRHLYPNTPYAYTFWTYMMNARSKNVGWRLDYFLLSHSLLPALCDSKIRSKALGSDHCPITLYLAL
Test Method Notes: Fluorogenic kinetic qHTS APE1 incision assay (primary screen and retest of cherrypicked samples);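 note: purified APE1 cleaving a fluorophore/dark-quencher labelled 17-mer duplex DNA bearing a tetrahydrofuran AP site, fluorescence rise followed kinetically over the first 2 min, inhibition normalized to controls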
Format: biochemical
Condition: retest of cherrypicked sample; read-out: APE1 Retest IC50
Recorded Metric: IC50

| Record Smiles | Test Value |
| --- | --- |
| Cc1cccn2c(=O)c3cc(C(=O)NCc4ccco4)c(=N)n(C4CCCCC4)c3nc12 | 12.9 µM |
| COc1ccc(NC(=O)CN(C)C(=O)c2cc3c(s2)CCC3)cc1 | 7.3 µM |
| CC1(CC(=O)N/N=C/c2cc([N+](=O)[O-])c(O)cc2O)OCCO1 | 12.6 µM |

Attribution: paper PMC3479139
